Biological target: Acetylcholinesterase (Homo sapiens)
Assay: Acetylcholinesterase (AChE) small molecule antagonists: fluorescence cell-based qHTS assay (AID 1347398); note: nearly all actives have a fitted effect of over 50% in size
Conditions: SH-SY5Y cells; AChE activity; series mostly up to 115 µM
Inconclusive results are not listed. Active and inactive are the calls of the source. Calls come from the whole dose curve. Residues, ends and D or L forms follow the SMILES beside them.
In this exercise, the only acceptable responses are class 1 for active, class 0 for inactive

Known results for compounds:
Compound	Qualitative label
CCCCCCCCOC(=O)c1cc(O)c(O)c(O)c1	class 0
CN1[C@@H]2CC[C@H]1CC(OC(=O)C(O)c1ccccc1)C2 (stereo partly drawn)	class 0
CC1(C)C(=O)N(Br)C(=O)N1Cl	class 0
CCOC(=O)/C=C/C(=O)OCC	class 0
CCCCCOC(=O)CCCC	class 0

Exercise: Record lookup: outcome of this test for Nc1c(Br)cc([N+](=O)[O-])cc1Br ?
Solution: class 0

Exercise: // next record CC(=O)N[C@@H](CO)C(=O)N[C@@H](CC(=O)O)C(=O)N[C@@H](CCCCN)C(=O)N1CCC[C@H]1C(=O)O (Ac-SDKP-OH)
Solution: class 0

Exercise: // next record CCCCOC(=O)/C=C\C(=O)OCCCC
Solution: class 0

---

Assay: qHTS assay to test for compound auto fluorescence at 590 nm (red) in HepG2 cells (AID 720674); note: % is set by controls: 0 for no effect and ±100 for the full control effect
Conditions: HepG2 autofluorescence, red 540/590 nm, 1 h; series mostly up to 46 µM
Calls of active or inactive are those of the source. Calls follow the shape of the dose curve; as a rule, active = well fitted curve in the direction sought with a large enough effect in the repeat runs; inconclusive = weak or mixed curves; inactive = flat fitted curve, though single readings scatter.
Endpoint: outcome

Smiles repr	Recorded measurement
C[C@]12CC[C@H]3[C@@H](CCC4=CC(=O)CC[C@@]43C)[C@@H]1CC[C@@H]2OC(=O)CCc1ccccc1	inactive
Cc1ccc2c(c1)[C@]13CCCC[C@@H]1[C@H](C2)N(C)CC3	inactive
CCC(=O)O[C@](Cc1ccccc1)(c1ccccc1)[C@H](C)CN(C)C	inactive

---

Target: Acetylcholinesterase (Homo sapiens) (UniProt P22303)
Sequence (P22303 whole entry, looked up): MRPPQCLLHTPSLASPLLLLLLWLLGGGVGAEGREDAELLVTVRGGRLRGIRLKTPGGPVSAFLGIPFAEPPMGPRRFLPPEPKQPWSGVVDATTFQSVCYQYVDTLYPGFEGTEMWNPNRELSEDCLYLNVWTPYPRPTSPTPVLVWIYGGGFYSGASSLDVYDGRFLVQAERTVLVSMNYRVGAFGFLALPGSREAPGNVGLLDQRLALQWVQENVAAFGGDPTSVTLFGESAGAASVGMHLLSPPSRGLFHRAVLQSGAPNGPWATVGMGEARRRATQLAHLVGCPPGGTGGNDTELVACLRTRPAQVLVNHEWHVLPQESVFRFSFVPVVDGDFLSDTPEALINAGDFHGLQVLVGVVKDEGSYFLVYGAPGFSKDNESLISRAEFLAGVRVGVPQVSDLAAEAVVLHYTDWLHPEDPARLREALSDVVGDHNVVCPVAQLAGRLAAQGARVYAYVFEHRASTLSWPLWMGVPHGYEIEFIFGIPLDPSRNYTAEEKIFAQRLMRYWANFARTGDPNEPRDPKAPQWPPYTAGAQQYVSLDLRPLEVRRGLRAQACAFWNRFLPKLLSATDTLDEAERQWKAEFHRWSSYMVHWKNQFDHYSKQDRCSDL
Experiment: Acetylcholinesterase (AChE) small molecule antagonists: colormetric cell-based qHTS assay (AID 1347395); note: nearly all actives have a fitted effect of over 30% in size
Conditions: SH-SY5Y cells AChE activity, colorimetric (Ellman); series mostly up to 115 µM
Results filed as inconclusive are left out. Active and inactive are the calls of the source. Calls follow the shape of the full dose curve.
In this exercise, the only acceptable responses are active, inactive

Molecule	System	Qualitative label
CC(C)(C)C1(CCc2ccc(Cl)cc2)CO1 (stereo not drawn)	Acetylcholinesterase (Homo sapiens) (UniProt P22303)	inactive
CC(=O)OCC(=O)[C@@]12OC(C)(C)O[C@@H]1C[C@H]1[C@@H]3C[C@H](F)C4=CC(=O)C=C[C@]4(C)[C@@]3(F)[C@@H](O)C[C@@]12C	Acetylcholinesterase (Homo sapiens) (UniProt P22303)	inactive
CC(=O)OC1CCCCC1C(C)(C)C (stereo not drawn)	Acetylcholinesterase (Homo sapiens) (UniProt P22303)	inactive
CCNC(=O)NCc1cccc(Cl)c1	Acetylcholinesterase (Homo sapiens) (UniProt P22303)	inactive
C=C(C)C(=O)OCCC(F)(F)C(F)(F)C(F)(F)C(F)(F)C(F)(F)C(F)(F)F	Acetylcholinesterase (Homo sapiens) (UniProt P22303)	inactive

Exercise: Record lookup: outcome of this test for C/C=C/C=C/COC(=O)C(C)C ?
Solution: inactive

Exercise: // next record COC(=O)CCCCCCCCC(=O)OC
Solution: inactive

Exercise: // next record Nc1ccc(F)c([N+](=O)[O-])c1
Solution: inactive

Exercise: // next record Cc1c(N)cccc1Cl
Solution: inactive

Exercise: // next record CCN(CC)CC(=O)OCC(=O)[C@@]1(O)CC[C@H]2[C@@H]3CCC4=CC(=O)CC[C@]4(C)[C@H]3[C@@H](O)C[C@@]21C
Solution: inactive

Exercise: // next record C[C@@H]1C[C@H]2[C@@H]3C[C@H](F)C4=CC(=O)C(Cl)=C[C@]4(C)[C@@]3(F)[C@@H](O)C[C@]2(C)[C@@]1(O)C(=O)CO
Solution: inactive

Exercise: // next record NC1CCN(c2nc3c(cc2F)c(=O)c(C(=O)O)cn3-c2ccc(F)cc2F)C1 (stereo not drawn)
Solution: inactive

Exercise: // next record Cc1onc(-c2ccccc2)c1-c1ccc(S(N)(=O)=O)cc1
Solution: inactive

Exercise: // next record CN(C)CCOC1=Cc2ccccc2Sc2ccc(Cl)cc21
Solution: inactive

Exercise: // next record Cc1cc(C)c(NC(=O)CN(CC(=O)O)CC(=O)O)c(C)c1Br
Solution: inactive

Exercise: // next record CC(C)COCC(CN(Cc1ccccc1)c1ccccc1)N1CCCC1 (stereo not drawn)
Solution: inactive

Exercise: // next record CCN(CC)c1cccc(O)c1
Solution: active

Exercise: // next record c1ccc2cc3c4ccccc4c4ccccc4c3cc2c1
Solution: inactive

Exercise: // next record CCCCCCC1CCC(=O)O1 (stereo not drawn)
Solution: inactive

Exercise: // next record C[C@H]1c2cccc(O)c2C(O)=C2C(=O)[C@]3(O)C(O)=C(C(N)=O)C(=O)[C@@H](N(C)C)[C@@H]3[C@@H](O)[C@@H]21
Solution: inactive

---

Target: Acetylcholinesterase (Homo sapiens) (UniProt P22303)
Assay: Acetylcholinesterase (AChE) small molecule antagonists: enzyme-based qHTS assay (AID 1347397); note: nearly all actives have a fitted effect of over 55% in size
Conditions: AChE enzyme activity inhibition; series mostly up to 115 µM
Calls of active or inactive are those of the source. The call rests on the fitted dose curve.
In this exercise, the only acceptable responses are 1 (active), -1 (inactive)

Exercise: Record lookup: outcome of this test for CCCCC(CC)CNCC(CC)CCCC (stereo not drawn) ?
Solution: -1

Exercise: // next record C#C[C@]1(OC(C)=O)CC[C@H]2[C@@H]3CCC4=C/C(=N/O)CC[C@@H]4[C@H]3CC[C@@]21CC
Solution: -1

Exercise: // next record Cc1cccc(CN2CCN(C(c3ccccc3)c3ccc(Cl)cc3)CC2)c1 (stereo not drawn)
Solution: -1

Exercise: // next record CCCCCC=CCC=CCCCCCCCC(=O)OCC
Solution: -1

Exercise: // next record Nc1cc(C(=O)O)ccc1Cl
Solution: -1

Exercise: // next record CSc1ccc(C(=O)c2[nH]c(=O)[nH]c2C)cc1
Solution: -1

---

Biological target: Acetylcholinesterase (Homo sapiens)
Test: Acetylcholinesterase (AChE) small molecule antagonists: fluorescence cell-based qHTS assay (AID 1347398); note: nearly all actives have a fitted effect of over 50% in size
Details: SH-SY5Y cells; AChE activity; series mostly up to 115 µM
Inconclusive results are not listed. The source made the active and inactive calls. The call rests on the fitted dose curve.
In this exercise, the only acceptable responses are True (active), False (inactive)

Known results for compounds:
Smiles repr	Qualitative label
N#CCCOCCC#N	False
Cc1cccc([N+](=O)[O-])c1C(=O)O	False
CCN(CC)CCOc1ccc2c(c1)C(=O)c1cc(OCCN(CC)CC)ccc1-2	True
O=C(O)CNC(=O)c1ccc([N+](=O)[O-])cc1	False
CCOc1ccc2ccccc2c1C(=O)N[C@@H]1C(=O)N2[C@@H]1SC(C)(C)[C@@H]2C(=O)O	False

Exercise: Record lookup: outcome of this test for NC(=O)c1cc[n+](CC2=C(C(=O)[O-])N3C(=O)[C@@H](NC(=O)Cc4cccs4)[C@H]3SC2)cc1 ?
Solution: False

Exercise: // next record CCOC(=O)c1nc(C(Cl)(Cl)Cl)n(-c2ccc(Cl)cc2Cl)n1
Solution: False

Exercise: // next record Nc1ccc(F)cc1F
Solution: False

Exercise: // next record CCCCc1ccc2c(n1)[C@@H](c1ccc(OC)cc1C[C@H](C)C(=O)O)[C@H](C(=O)O)[C@H]2c1ccc2c(c1)OCO2
Solution: False

Exercise: // next record CCO[Si](C)(C)OCC
Solution: False

---

Molecular target: Acetylcholinesterase (Homo sapiens) (UniProt P22303)
Assay: Acetylcholinesterase (AChE) small molecule antagonists: fluorescence cell-based qHTS assay (AID 1347398); note: nearly all actives have a fitted effect of over 50% in size; for activity change, negative = inhibition: % is set by controls: 0 for no effect and ±100 for the full control effect
Conditions: SH-SY5Y cells; series mostly up to 115 µM
From the text: National Center for Advancing Translational Sciences [NCATS] Division of Preclinical Innovation [DPI] U.S. Environmental Protection Agency [EPA] National Institutes of Environmental Health Sciences [NIEHS] National Toxicology Program [NTP] […] A homogenous cell-based assay using Amplitetrade mark Fluorimetric Acetylcholinesterase Assay Kit *Green Fluorescence* (AAT Bioquest, Sunnyvale, CA) was used to evaluate the chemicals in the Tox21 10K library that inhibit AChE activity. […]
Inconclusive results are not listed. Activity calls are given as the source filed them. Calls follow the shape of the full dose curve.
Endpoint: activity change, negative = inhibition

Exercise: Reported activity change, negative = inhibition for NCC[C@H](O)C(=O)N[C@@H]1C[C@H](N)[C@@H](O[C@H]2O[C@H](CN)[C@@H](O)[C@H](O)[C@H]2O)[C@H](O)[C@H]1O[C@H]1O[C@H](CO)[C@@H](O)[C@H](N)[C@H]1O : what is it?
Solution: 5.79% [at 0.439 µM] (inactive)

---

Molecular target: Acetylcholinesterase (Homo sapiens) (UniProt P22303)
Test: Acetylcholinesterase (AChE) small molecule antagonists: enzyme-based qHTS assay (AID 1347397); note: nearly all actives have a fitted effect of over 55% in size
Conditions: AChE enzyme activity inhibition
Calls of active or inactive are those of the source. Calls come from the whole dose curve.
Endpoint: outcome

Below, 5 molecules whose answers are already recorded.
Molecule	System	Recorded measurement
CN(C/C=C/c1ccccc1)Cc1cccc2ccccc12	Acetylcholinesterase (Homo sapiens) (UniProt P22303)	inactive
C=CCOc1ccccc1OCC(O)CNC(C)C (configuration not stated)	Acetylcholinesterase (Homo sapiens) (UniProt P22303)	inactive
CNCC(O)c1ccc(O)c(O)c1 (configuration not stated)	Acetylcholinesterase (Homo sapiens) (UniProt P22303)	inactive
c1ccc([C@H]2CN3CCSC3=N2)cc1	Acetylcholinesterase (Homo sapiens) (UniProt P22303)	inactive
CCOc1ccccc1O[C@H](c1ccccc1)[C@H]1CNCCO1	Acetylcholinesterase (Homo sapiens) (UniProt P22303)	inactive

Exercise: Hi! What's the reported outcome for Cc1nccn1-c1ccc(Sc2cccc(C3(C(N)=O)CCOCC3)c2)cc1 on Acetylcholinesterase (Homo sapiens) (UniProt P22303)?
Solution: inactive

Exercise: // next record C[C@H](N)C(=O)N[C@@H](C)C(=O)NC1[C@H]2CN(c3nc4c(cc3F)c(=O)c(C(=O)O)cn4-c3ccc(F)cc3F)C[C@@H]12 (some centres not stated)
Solution: inactive
